Assignment: determine reported pIC50 for the given compounds.
molecular target: BIR3 domain of human cIAP-1 (residues 267-363) (Homo sapiens (Human)); assay: cIAP-1 in vitro competitive displacement binding assay (fluorescence polarization; Probe A AVPIK(5&6FAM)-amide or Probe B AbuRPFK(5&6FAM)-amide); details: Probe B AbuRPFK(5&6FAM)-amide; read-out: IC50 or PI cIAP1: IC50
Sequence (Q13490 267-363): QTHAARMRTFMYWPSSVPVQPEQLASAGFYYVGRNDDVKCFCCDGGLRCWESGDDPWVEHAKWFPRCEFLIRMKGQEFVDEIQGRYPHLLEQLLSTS
Structures can show the parent of a compound that is named as a salt.
In simple prose, pIC50 is minus the logarithm base ten of a concentration in moles per litre.

Short answer please: pIC50, BIR3 domain of human cIAP-1 (residues 267-363) (Homo sapiens (Human)), entry CC1(C)CN(C(=O)CN2CCN[C@@H](CF)C2)c2cc(Cc3ccccc3)ncc21 [Example 116]
5.72

Field: pIC50 (BIR3 domain of human cIAP-1 (residues 267-363) (Homo sapiens (Human))). Entry: CC(C)S(=O)(=O)c1cc2c(cc1F)C(C)(C)CN2C(=O)CN1CCN[C@H](C)C1 [Example 52]
5.60

Any idea what pIC50 came out for COC[C@H]1CN[C@H](C)CN1CC(=O)N1CC(C)(C)c2cnc(Cc3cccc(Cl)c3)cc21 [Example 86, hydrochloride salt] on BIR3 domain of human cIAP-1 (residues 267-363) (Homo sapiens (Human))?
7.92

pIC50 of C[C@@H]1CN(CC(=O)N2CC3(CCCC3)c3ccc(Cl)cc32)CCN1 [Example 50, hydrochloride salt] on BIR3 domain of human cIAP-1 (residues 267-363) (Homo sapiens (Human))?
4.82

Test system BIR3 domain of human cIAP-1 (residues 267-363) (Homo sapiens (Human)); read-out pIC50; what value for C[C@@H]1CN(CC(=O)N2CC(C)(C)c3cnc(Cc4ccccc4)cc32)[C@@H](C(F)F)CN1 [Example 122, hydrochloride] ?
7.54

Kindly state the measured pIC50 obtained for C[C@@H]1CN([C@@H](C)C(=O)N2CC(C)(C)c3ccc(C#N)cc32)CCN1 [Example 196, hydrochloride] with BIR3 domain of human cIAP-1 (residues 267-363) (Homo sapiens (Human)).
4.51

Form field - read-out: pIC50; system: BIR3 domain of human cIAP-1 (residues 267-363) (Homo sapiens (Human)); submitted item: CC[C@H]1CN[C@H](C)CN1CC(=O)N1CC(C)(C)c2cnc(Cc3ccccc3)cc21 [Example 91, hydrochloride salt]
7.72

Data provenance: patent US9018214B2
